measurement target: ATPase family AAA domain-containing protein 2B (Homo sapiens)
Sequence (Q9ULI0 whole entry, the tested form may be a part): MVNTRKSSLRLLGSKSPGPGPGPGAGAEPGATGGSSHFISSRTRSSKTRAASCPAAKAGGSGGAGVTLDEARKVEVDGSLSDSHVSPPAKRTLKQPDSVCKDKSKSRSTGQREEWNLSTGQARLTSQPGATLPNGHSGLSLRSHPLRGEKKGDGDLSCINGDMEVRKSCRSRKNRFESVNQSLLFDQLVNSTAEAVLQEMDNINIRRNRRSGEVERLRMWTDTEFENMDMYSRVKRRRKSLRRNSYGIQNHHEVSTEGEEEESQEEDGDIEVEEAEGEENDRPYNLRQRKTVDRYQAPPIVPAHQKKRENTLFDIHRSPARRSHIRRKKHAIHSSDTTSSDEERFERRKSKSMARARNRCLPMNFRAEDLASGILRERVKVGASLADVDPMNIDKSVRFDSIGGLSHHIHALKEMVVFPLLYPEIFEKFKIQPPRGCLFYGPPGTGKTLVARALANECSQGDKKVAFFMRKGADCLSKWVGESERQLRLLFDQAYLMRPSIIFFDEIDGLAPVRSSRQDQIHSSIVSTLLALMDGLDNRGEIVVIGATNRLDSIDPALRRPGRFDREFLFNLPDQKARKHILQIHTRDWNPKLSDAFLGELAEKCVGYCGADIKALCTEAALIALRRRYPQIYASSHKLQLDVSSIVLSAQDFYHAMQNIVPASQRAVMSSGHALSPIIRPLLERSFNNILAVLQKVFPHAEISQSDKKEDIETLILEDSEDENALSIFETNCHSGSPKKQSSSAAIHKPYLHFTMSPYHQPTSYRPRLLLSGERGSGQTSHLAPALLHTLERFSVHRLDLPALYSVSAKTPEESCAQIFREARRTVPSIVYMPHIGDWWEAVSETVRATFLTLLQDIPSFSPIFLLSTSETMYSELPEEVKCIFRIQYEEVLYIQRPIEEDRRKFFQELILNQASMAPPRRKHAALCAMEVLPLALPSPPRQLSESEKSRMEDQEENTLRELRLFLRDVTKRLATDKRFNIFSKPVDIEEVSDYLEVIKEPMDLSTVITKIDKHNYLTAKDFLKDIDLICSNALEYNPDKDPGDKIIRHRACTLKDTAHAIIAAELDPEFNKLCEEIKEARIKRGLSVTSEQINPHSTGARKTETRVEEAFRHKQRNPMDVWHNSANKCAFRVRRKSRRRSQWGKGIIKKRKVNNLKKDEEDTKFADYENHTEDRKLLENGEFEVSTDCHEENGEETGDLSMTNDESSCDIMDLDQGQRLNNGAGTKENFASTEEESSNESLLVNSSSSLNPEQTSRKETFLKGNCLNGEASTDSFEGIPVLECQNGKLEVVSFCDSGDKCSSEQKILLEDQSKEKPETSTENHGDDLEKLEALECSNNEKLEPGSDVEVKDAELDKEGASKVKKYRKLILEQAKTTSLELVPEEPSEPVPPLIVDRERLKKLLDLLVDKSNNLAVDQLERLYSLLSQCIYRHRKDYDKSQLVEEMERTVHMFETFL
method notes: Selectivity interaction (BROMOscan) EUB0001074a ATAD2B
quantity name: IC50

Q) I am curious: what IC50 value has been reported for CCc1cc2cc(NS(=O)(=O)c3ccc(C#N)cc3)ccc2n(CC)c1=O ?
A) > 100 µM

* * *

measurement target: Histone-arginine methyltransferase CARM1 (Homo sapiens)
Sequence (Q86X55 whole entry): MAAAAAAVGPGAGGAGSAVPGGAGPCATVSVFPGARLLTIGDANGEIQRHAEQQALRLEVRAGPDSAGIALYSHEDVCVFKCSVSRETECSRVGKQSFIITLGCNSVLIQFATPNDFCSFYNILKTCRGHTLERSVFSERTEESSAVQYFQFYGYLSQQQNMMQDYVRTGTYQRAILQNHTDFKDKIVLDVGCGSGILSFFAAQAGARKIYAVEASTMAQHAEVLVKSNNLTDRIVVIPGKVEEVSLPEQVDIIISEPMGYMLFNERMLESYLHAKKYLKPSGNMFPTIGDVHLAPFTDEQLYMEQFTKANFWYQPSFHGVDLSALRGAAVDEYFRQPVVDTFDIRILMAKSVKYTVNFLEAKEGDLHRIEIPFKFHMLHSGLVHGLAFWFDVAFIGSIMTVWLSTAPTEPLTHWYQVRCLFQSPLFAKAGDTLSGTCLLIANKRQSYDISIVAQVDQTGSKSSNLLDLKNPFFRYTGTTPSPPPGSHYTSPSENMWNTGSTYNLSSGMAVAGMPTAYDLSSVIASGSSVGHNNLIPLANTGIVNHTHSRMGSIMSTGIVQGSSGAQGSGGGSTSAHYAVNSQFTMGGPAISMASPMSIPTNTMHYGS
method notes: Selectivity interaction (Western Blot (dimethylation of BAF155 (BAF155me2a/BAF155) in KMS-27 cells)) EUB0000255b CARM1
Type: cell-based
quantity name: IC50

Q) I am curious: what IC50 value has been reported for COCCN1CCC(c2cc(CN(C)C(=O)c3cccc(Oc4ccccc4)c3)ccn2)CC1 ?
A) > 3 nM

* * *

measurement target: UniProtKB P09874
Sequence (P09874 whole entry): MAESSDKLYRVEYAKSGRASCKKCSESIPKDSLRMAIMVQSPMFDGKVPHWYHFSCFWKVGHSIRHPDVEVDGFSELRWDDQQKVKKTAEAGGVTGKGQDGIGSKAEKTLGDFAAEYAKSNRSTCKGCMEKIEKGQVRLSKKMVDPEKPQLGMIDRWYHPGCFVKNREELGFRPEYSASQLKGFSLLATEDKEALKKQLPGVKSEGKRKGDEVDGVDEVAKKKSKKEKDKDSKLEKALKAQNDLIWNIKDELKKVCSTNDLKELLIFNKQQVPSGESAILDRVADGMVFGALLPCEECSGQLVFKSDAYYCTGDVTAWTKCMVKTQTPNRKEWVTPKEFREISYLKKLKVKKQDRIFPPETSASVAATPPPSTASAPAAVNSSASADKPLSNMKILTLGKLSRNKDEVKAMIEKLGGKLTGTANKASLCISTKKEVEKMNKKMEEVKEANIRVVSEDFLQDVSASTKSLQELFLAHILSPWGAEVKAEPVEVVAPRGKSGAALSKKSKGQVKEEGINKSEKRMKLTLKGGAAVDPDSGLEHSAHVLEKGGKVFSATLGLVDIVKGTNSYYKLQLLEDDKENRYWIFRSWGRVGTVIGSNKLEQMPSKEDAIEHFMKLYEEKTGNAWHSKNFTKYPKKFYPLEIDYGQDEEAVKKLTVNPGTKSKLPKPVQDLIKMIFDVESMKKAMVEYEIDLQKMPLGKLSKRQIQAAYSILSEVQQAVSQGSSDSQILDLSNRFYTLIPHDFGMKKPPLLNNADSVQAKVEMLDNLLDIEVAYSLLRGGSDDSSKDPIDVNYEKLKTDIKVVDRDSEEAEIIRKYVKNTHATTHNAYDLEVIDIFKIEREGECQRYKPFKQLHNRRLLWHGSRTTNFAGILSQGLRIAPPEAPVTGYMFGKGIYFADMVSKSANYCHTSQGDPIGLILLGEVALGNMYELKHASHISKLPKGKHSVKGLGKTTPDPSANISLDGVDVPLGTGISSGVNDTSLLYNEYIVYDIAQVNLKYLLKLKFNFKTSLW
method notes: Selectivity interaction (Enzymatic assay (Reaction Biology)) EUB0001632a PARP1
quantity name: IC50

Q) I am curious: what IC50 value has been reported for Cn1cc(-n2cnc3c(NCc4nc5cc(Cl)c(Cl)cc5[nH]4)nc(N4CCOCC4)nc32)cn1 ?
A) > 10 µM

* * *

measurement target: Adenosine receptor A3 (Homo sapiens)
Sequence (P0DMS8 whole entry): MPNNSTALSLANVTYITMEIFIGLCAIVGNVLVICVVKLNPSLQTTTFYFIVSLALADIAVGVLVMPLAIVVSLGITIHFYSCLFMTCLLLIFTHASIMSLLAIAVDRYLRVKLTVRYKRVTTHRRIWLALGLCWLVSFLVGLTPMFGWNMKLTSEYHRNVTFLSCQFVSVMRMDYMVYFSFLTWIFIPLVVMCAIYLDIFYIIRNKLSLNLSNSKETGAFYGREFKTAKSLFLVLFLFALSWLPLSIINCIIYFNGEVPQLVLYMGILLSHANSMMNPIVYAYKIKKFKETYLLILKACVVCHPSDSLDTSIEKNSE
method notes: Selectivity interaction (Adenosine 3 receptor binding assay, human recombinant ) EUB0000877a ADORA3
quantity name: IC50

Q) I am curious: what IC50 value has been reported for CCC(=O)N1CC[C@H](Nc2ncnc3c2CN(c2cnc(OC)c(C(F)(F)F)c2)CC3)C1 [LENIOLISIB] ?
A) > 30 µM

* * *

measurement target: UniProtKB P14416
Sequence (P14416 whole entry): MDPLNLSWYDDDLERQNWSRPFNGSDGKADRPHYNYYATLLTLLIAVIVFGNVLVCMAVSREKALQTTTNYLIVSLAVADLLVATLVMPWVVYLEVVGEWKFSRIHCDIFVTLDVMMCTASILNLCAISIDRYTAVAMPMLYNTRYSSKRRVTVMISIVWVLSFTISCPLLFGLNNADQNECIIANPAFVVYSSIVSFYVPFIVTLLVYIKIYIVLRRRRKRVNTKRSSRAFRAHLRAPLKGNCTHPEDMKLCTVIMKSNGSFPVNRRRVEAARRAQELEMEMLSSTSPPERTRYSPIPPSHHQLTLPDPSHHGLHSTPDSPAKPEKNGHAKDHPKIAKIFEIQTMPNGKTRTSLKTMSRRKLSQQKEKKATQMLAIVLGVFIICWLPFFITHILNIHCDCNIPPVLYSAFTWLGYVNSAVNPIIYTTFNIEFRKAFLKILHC
method notes: Selectivity interaction (CEREP panel (binding assay, receptors and ion channels)) EUB0001623a DRD2
quantity name: IC50 (µM)
Give bare numbers, in µM.

Q) I am curious: what IC50 value has been reported for Cc1n[nH]c2ncc(C(=O)N3CCC[C@H]3c3ccc(Cl)cc3)cc12 ?
A) 8.5

* * *

measurement target: Cyclin-dependent kinase 4 (Homo sapiens, UniProt P11802)
Sequence (P11802 whole entry): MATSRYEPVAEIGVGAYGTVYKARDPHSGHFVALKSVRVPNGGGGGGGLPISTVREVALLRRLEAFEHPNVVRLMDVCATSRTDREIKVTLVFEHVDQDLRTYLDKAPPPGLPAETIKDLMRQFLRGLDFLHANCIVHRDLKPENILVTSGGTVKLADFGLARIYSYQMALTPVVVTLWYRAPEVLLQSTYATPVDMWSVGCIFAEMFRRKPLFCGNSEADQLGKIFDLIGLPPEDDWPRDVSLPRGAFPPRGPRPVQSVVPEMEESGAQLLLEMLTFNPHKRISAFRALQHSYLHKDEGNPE
method notes: Selectivity interaction (Kinase panel (33PanQinase(R) Activity Assay)) EUB0000877a CDK4
quantity name: IC50

Q) Request body: readout IC50, system Cyclin-dependent kinase 4 (Homo sapiens, UniProt P11802), query CCC(=O)N1CC[C@H](Nc2ncnc3c2CN(c2cnc(OC)c(C(F)(F)F)c2)CC3)C1 . Return the value.
A) > 10 µM

* * *

measurement target: Platelet-derived growth factor receptor beta (Homo sapiens)
method notes: Selectivity interaction (Kinase panel (enzymatic assay)) EUB0000595a PDGFRB
quantity name: IC50

Q) I am curious: what IC50 value has been reported for COCC(=O)NC/C=C/c1ccc2ncnc(Nc3ccc(Oc4ccc(C)nc4)c(C)c3)c2c1 [CP-724714] ?
A) > 10 µM

* * *

measurement target: Aurora kinase B (Homo sapiens)
Sequence (Q96GD4 whole entry): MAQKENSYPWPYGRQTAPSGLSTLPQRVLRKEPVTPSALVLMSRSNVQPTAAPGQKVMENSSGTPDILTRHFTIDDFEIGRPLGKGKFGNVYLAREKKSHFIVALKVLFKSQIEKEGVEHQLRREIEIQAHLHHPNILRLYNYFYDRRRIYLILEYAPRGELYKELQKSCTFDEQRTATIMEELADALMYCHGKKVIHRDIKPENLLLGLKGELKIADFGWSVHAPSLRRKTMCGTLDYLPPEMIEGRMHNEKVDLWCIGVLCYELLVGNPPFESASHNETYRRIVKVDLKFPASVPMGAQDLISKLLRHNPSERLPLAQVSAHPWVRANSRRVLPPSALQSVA
method notes: Selectivity interaction (Enzymatic assay) EUB0001550a AURKB
quantity name: pIC50
One number for each entry, as −log10 of the molar value.

Q) I am curious: what pIC50 value has been reported for CN(C)CC#Cc1ccc2[nH]c3c(c2c1)-c1nc(N)ncc1CCC3 ?
A) 5.85

* * *

measurement target: Glycogen synthase kinase-3 beta (Homo sapiens, UniProt P49841)
Sequence (P49841 whole entry): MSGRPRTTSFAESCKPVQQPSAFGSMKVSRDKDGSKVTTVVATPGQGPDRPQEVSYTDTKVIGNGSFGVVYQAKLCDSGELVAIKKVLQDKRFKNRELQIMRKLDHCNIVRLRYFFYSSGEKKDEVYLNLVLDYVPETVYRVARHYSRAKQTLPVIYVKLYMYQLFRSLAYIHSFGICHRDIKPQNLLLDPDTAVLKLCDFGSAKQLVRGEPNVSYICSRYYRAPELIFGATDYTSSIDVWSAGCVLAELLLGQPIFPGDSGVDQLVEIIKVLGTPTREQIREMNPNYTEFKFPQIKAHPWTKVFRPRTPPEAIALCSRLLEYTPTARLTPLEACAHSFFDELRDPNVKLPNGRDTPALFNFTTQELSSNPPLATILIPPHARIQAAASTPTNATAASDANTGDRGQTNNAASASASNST
method notes: Selectivity interaction (Kinase panel (Invitrogen, enzymatic assay)) EUB0000623aCl GSK3B
pIC50: −log10 of the molar value.
quantity name: pIC50

Q) Request body: readout pIC50, system Glycogen synthase kinase-3 beta (Homo sapiens, UniProt P49841), query CC(C)(C)c1ccc(C(=O)Nc2cn3cc(-n4ccnc4)ccc3n2)cc1 . Return the value.
A) < 5.00

The measurements presented in this section are drawn from ChEMBL document CHEMBL5465560.
